Assignment: determine reported melting point for the given molecules.
Numbers only, in °C.

1. CC1CCN(c2c(-c3c(F)cc(F)cc3F)c(Cl)nc3nccn23)CC1    200.8
2. Cc1cc(C)n(-c2c(-c3c(F)cc(F)cc3F)c(Cl)nc3nccn23)n1    150.4
3. Cc1nc2nccn2c(N2CCC(C)CC2)c1-c1c(F)cccc1Cl    144.5

For each of the molecules below, note its melting point.
1. CC1CCN(c2c(-c3c(F)cccc3Cl)c(Cl)nc3nccn23)CC1
2. CCCN(CCC)c1c(-c2c(F)cc(F)cc2F)c(Cl)nc2nccn12

A)
1. 183.8
2. 95.4
